target: Aldehyde dehydrogenase, mitochondrial (Homo sapiens); assay: qHTS for Inhibitors of the Aldehyde Dehydrogenase Family (ALDH2) Primary screen (AID 2061308); conditions: ALDH2 enzyme inhibition qHTS, 1536-well; series mostly up to 56 µM; also: nearly all actives have a fitted effect of over 55% in size
Records with an inconclusive call do not appear. Calls of active or inactive are those of the source. Calls follow the shape of the dose curve; as a rule, active = well fitted inhibition curve with a large enough effect; inconclusive = small, poorly fitted or top-dose-only effect; inactive = flat fitted curve, though single readings scatter.
VALUE_KIND: outcome

# count of solved cases: 5
Cc1ccc(S(=O)(=O)NC(N)=NCCC[C@@H](N)C(=O)Nc2cc(C(F)(F)F)ccc2Cl)cc1; inactive
Cn1c2cc(C#N)sc2c2cnn(Cc3ccc(F)cc3)c(=O)c21; inactive
CC(=O)c1c(OCCN2CCCCC2)c(OCCC(C)c2ccc(F)cc2)c2oc(C)nc2c1C (stereo not given); inactive
Cc1ccc(Cn2ncc3c4sc(C)cc4n(C)c3c2=O)cc1; inactive
O=C1Nc2cccc(Cl)c2/C1=C\c1cc(Cl)c(O)c(Cl)c1; inactive

// switching to the query compound
(Q) Give the measured outcome of `Cc1cc(C(=O)Nc2ccc(NC(=O)Cc3ccc(Cl)c(Cl)c3)cc2)no1` .
(A) inactive

====

test: BET inhibitor-based combinations targeting novel dependencies in MECOM-rearranged (r) AML: MV-4-11 cell line (AID 2202233); settings: MV-4-11 AML viability, CellTiter-Glo luminescence, 48 h; series mostly up to 46 µM; also: nearly all actives have a fitted effect of over 45% in size; also: potency is read from the fitted curve at half-maximal effect
Inconclusive results are not listed. Activity calls are given as the source filed them. Calls follow the shape of the dose curve; as a rule, active = well fitted inhibition curve with a large enough effect; inconclusive = small, poorly fitted or top-dose-only effect; inactive = no such curve, though single readings can be large or run the other way.
VALUE_KIND: Potency

# count of solved cases: 5
Cc1cc(C(=O)Nc2cc(Nc3ccc4c(/C=C/c5ccccn5)n[nH]c4c3)ccc2F)n(C)n1; 16.6 µM (active)
COc1cc(O)c2c(c1)C1OC1C[C@H](O)[C@H](O)C(=O)C=CC[C@H](C)OC2=O (some centres not stated); 0.132 µM (active)
COc1cc(Nc2cnc(C#N)c(O[C@H](C)CN(C)C)n2)ncc1-c1cnn(C)c1; 0.742 µM (active)
COC(=O)[C@H](CCCN=C(N)N)NS(=O)(=O)c1ccc(C)cc1; inactive
Cc1c(CN2CCN(C(=O)[C@H](C)O)CC2)sc2c(N3CCOCC3)nc(-c3cnc(N)nc3)nc12; 0.525 µM (active)

(Q) Give the measured Potency of `Cc1cc(O[C@@H](CCC(F)(F)F)c2ccc(C(=O)NCCC(=O)O)cc2)cc(C)c1-c1ccc(C(C)(C)C)cc1` .
(A) 18.6 µM (active)

(Q) Give the measured Potency of `C=CC(=O)Nc1cccc(C)c1Nc1ncc2cc(-c3c(Cl)c(OC)cc(OC)c3Cl)ccc2n1` .
(A) 4.17 µM (active)

(Q) Give the measured Potency of `C[C@H](NC(=O)CCC(F)(F)F)C(=O)N[C@@H]1C(=O)N(CCO)c2ncccc2-c2ccccc21` .
(A) inactive

(Q) Give the measured Potency of `COc1cc2ncnc(Nc3ccc(O)c(Br)c3)c2cc1OC` .
(A) 1.48 µM (active)

(Q) Give the measured Potency of `C[C@@H]1[C@H](O)[C@@H](C)/C=C/C=C/C=C/C=C/C=C/C=C/C=C/[C@H](O[C@@H]2O[C@H](C)[C@@H](O)[C@H](N)[C@@H]2O)C[C@@H]2O[C@](O)(C[C@@H](O)C[C@@H](O)[C@H](O)CC[C@@H](O)C[C@@H](O)CC(=O)O[C@H]1C)C[C@H](O)[C@H]2C(=O)O` .
(A) 23.5 µM (active)

(Q) Give the measured Potency of `CN(CCO)C1CCN(c2ccc(Nc3ncc4c5ccnc(F)c5n(C5CCCC5)c4n3)nc2)CC1` .
(A) 0.129 µM (active)

(Q) Give the measured Potency of `C#C[C@]1(O)CC[C@H]2[C@@H]3CCc4cc(O)ccc4[C@H]3CC[C@@]21C` .
(A) 20.9 µM (active)

(Q) Give the measured Potency of `COc1cc2ncnc(Nc3cccc(Cl)c3F)c2cc1OC(=O)N1CCN(C)C[C@H]1C` .
(A) 13.2 µM (active)

====

target: Aldehyde dehydrogenase 1A1 (Homo sapiens); experiment: qHTS for Inhibitors of the Aldehyde Dehydrogenase Family (ALDH1A1) Confirmatory screens (AID 2061316); conditions: ALDH inhibition qHTS; series mostly up to 47.3 µM; also: nearly all actives have a fitted effect of over 65% in size
Records with an inconclusive call do not appear. The source made the active and inactive calls. Calls come from the whole dose curve; as a rule, active = well fitted inhibition curve with a large enough effect; inconclusive = small, poorly fitted or top-dose-only effect; inactive = no such curve, though single readings can be large or run the other way.
Parameter call: string, one of true for active, false for inactive

Look over these answered cases.
O=C(Nc1ccc(N2CCOCC2)nc1)c1cccs1; true
N#Cc1nc(NCC(F)F)nc(Nc2cc(F)cc(F)c2)n1; false
COC(=O)c1ccccc1-c1ccc(/C=c2\sc3nc4cc(Br)cnc4n3c2=O)o1; true
O=C1Nc2ccccc2/C1=C/c1cccc(C(=O)O)c1; false
COc1ccc(-c2nc(CCNC(=O)c3c(F)cccc3Cl)cs2)cc1; false

(Q) Could you kindly confirm the outcome this assay logged for `NC(=O)c1c(NC(=O)c2ccco2)sc2c1CCCC2` ?
(A) true

(Q) Could you kindly confirm the outcome this assay logged for `CC(C)(C)OC(=O)N1CCN(c2ccc(NCc3ccc(-c4ccc(C#N)cc4)nc3)cc2)CC1` ?
(A) true

(Q) Could you kindly confirm the outcome this assay logged for O=C1Nc2ccccc2C12CC2c1cc(Cl)c(O)c(Cl)c1 (stereo unspecified) ?
(A) false

====

Assay: BET inhibitor-based combinations targeting novel dependencies in MECOM-rearranged (r) AML: UCSD-AML1 cell line (AID 2202235); also: nearly all actives have a fitted effect of over 40% in size
Conditions: UCSD-AML1 AML cells viability, CellTiter-Glo, 48 h; series mostly up to 46 µM
Experimental: Ecotropic viral insertion site 1 (EVI1) is located on chromosome 3q26.2 as part of the MECOM (MDS and EVI1 complex) locus. […] A collection of 2480 mechanistically annotated dugs (MIPE v5.0) was used to screen four 3q26.2 rearranged AML cell lines and three non-3q26.2 rearranged AML cell lines. […] Cell viability was determined by luminescence based, Cell Titer Glo assay (Promega). […] Luminescence readings were taken using a Viewlux (PerkinElmer) with a 2 s exposure time per plate. […]
Records with an inconclusive call do not appear. The source made the active and inactive calls. Calls follow the shape of the dose curve; as a rule, active = well fitted inhibition curve with a large enough effect; inconclusive = small, poorly fitted or top-dose-only effect; inactive = no such curve, though single readings can be large or run the other way.
Parameter call: string, one of active, inactive

Look over these answered cases.
CN1C(=O)N(c2cc(Cl)cc(Cl)c2)C(=O)[C@]12CN(Cc1cc(C(=O)O)cs1)C[C@H]2c1ccc(C#N)cc1; inactive
Nc1nc(F)nc2c1ncn2[C@@H]1O[C@H](COP(=O)(O)O)[C@@H](O)[C@@H]1O; active
CC(C)C1CCC(C(=O)N[C@H](Cc2ccccc2)C(=O)O)CC1 (stereo partly specified); inactive
CC[C@H](C)C(=O)O[C@H]1C[C@H](O)C=C2C=C[C@H](C)[C@H](CC[C@@H](O)C[C@@H](O)CC(=O)O)[C@H]21; inactive
CNCCn1c(=O)c2cc(OC)c(OC)cc2c2cnc3cc4c(cc3c21)OCO4; active
O=C(Nc1cnn2ccc(N3CCC[C@@H]3c3cc(F)ccc3F)nc12)N1CC[C@H](O)C1; inactive

Turning now to a further molecule:
(Q) Could you kindly confirm the outcome this assay logged for `CNC(=O)[C@@H](NC(=O)[C@H](CC(C)C)[C@H](O)C(=O)NO)C(C)(C)C` ?
(A) inactive

====

assay: BET inhibitor-based combinations targeting novel dependencies in MECOM-rearranged (r) AML: MV-4-11 cell line (AID 2202233); conditions: MV-4-11 AML viability, CellTiter-Glo luminescence, 48 h; series mostly up to 46 µM; also: nearly all actives have a fitted effect of over 45% in size
Results filed as inconclusive are left out. Calls of active or inactive are those of the source. Calls come from the whole dose curve; as a rule, active = well fitted inhibition curve with a large enough effect; inconclusive = small, poorly fitted or top-dose-only effect; inactive = no such curve, though single readings can be large or run the other way.
Parameter call: string, one of true = active, false = inactive

CC/C(=C(/c1ccc(O)cc1)c1ccc(OCCNC)cc1)c1ccccc1; true
COc1cc(OC)cc(N2CCN(C(=O)Nc3nc4cc(F)ccc4nc3OC)CC2)c1; true
Cn1c(NC[C@@H](N)Cc2ccccc2)nc(-c2ccncc2)c(-c2ccc3ccccc3c2)c1=O; true

(Q) Could you kindly confirm the outcome this assay logged for `O=c1cc(N2CCOCC2)oc2c(-c3ccc4c(c3)OCCO4)csc12` ?
(A) true

(Q) Could you kindly confirm the outcome this assay logged for `Cc1ccc(Nc2ncc3c(n2)N(C)C(=O)N(c2cc(NC(=O)c4cccc(C(F)(F)F)c4)ccc2C)C3)cn1` ?
(A) true

(Q) Could you kindly confirm the outcome this assay logged for `COc1ccccc1C(=O)Nc1cc2c(cc1N1CCNC[C@H]1C)n(C)c(=O)n2C` ?
(A) true

(Q) Could you kindly confirm the outcome this assay logged for `N=C1CCCN1Cc1[nH]c(=O)[nH]c(=O)c1Cl` ?
(A) false

(Q) Could you kindly confirm the outcome this assay logged for `CCC[C@H](Nc1nc(-c2ccc(NC(=O)NCC)c(OC)c2)ncc1C)c1cccnc1` ?
(A) true

(Q) Could you kindly confirm the outcome this assay logged for `C=CC(=O)N[C@H]1CCOC[C@H]1Nc1ncc2cc(-c3c(Cl)c(OC)cc(OC)c3Cl)ccc2n1` ?
(A) true

====

assay: qHTS for Inhibitors of the Aldehyde Dehydrogenase Family (ALDH1A2, ALDH1A3, ALDH2, ALDH3A1) (AID 2061307); settings: ALDH inhibition qHTS; series mostly up to 50.3 µM; also: nearly all actives have a fitted effect of over 50% in size; as to Potency: test system not described further here; potency is read from the fitted curve at half-maximal effect
Records with an inconclusive call do not appear. The source made the active and inactive calls. Calls come from the whole dose curve; as a rule, active = well fitted inhibition curve with a large enough effect; inconclusive = small, poorly fitted or top-dose-only effect; inactive = no such curve, though single readings can be large or run the other way.
VALUE_KIND: Potency

# count of solved cases: 5
Cn1ccc(=Nc2ccc(NC(=O)c3ccc(N=c4ccn(C)c5ccc([N+](=O)[O-])cc45)cc3[N+](=O)[O-])cc2)cc1; 5.65 µM (active)
Cc1cccc2c1NC(=O)/C2=C/c1cc(Cl)c(O)c(Cl)c1; 4 µM (active)
COC(=O)CNCc1c(O)ccc2ccccc12; 6.34 µM (active)
O=C([C@H](NS(=O)(=O)c1ccc2[nH]c(=O)ccc2c1)c1ccc(F)cc1)N(Cc1ccco1)Cc1cccs1; 25.2 µM (active)
COc1ccc(C2Nc3ccccc3C(=O)N2Cc2ccccc2)cc1COc1ccc(C#N)cc1 (stereo unspecified); 1.01 µM (active)

(Q) Give the measured Potency of `CN(C)c1ccc(-c2cc[nH]c(=O)c2N)cc1` .
(A) 12.7 µM (active)

(Q) Give the measured Potency of `C[S+](=O)([O-])c1ccc(-c2nnc3ccc(C(=O)NCc4cccs4)cn23)cc1` .
(A) inactive

(Q) Give the measured Potency of `O=C(NCCc1nc2ccccc2n1CCCc1ccccc1)C1CCCCC1` .
(A) inactive

(Q) Give the measured Potency of `CN(CC(=O)Nc1cccc(N2CCOCC2)c1)Cc1c(O)ccc2ccccc12` .
(A) 5.65 µM (active)

(Q) Give the measured Potency of `NC(=O)C1CCN(c2nc(-c3ccccc3[N+](=O)[O-])cs2)CC1` .
(A) 12.7 µM (active)
